Values from the OligoGym collection

Settings: siRNA; further: test system not given here
HELM strings list units from the 5' end as sugar, base in round brackets, then linkage (d deoxyribose, r ribose, m 2'-O-methyl, p phosphodiester). Strings are as the collection lists them, not checked against the first reports. ss, as = sense and antisense strand; [fl2r] = 2'-fluoro
Reported property: target mRNA knockdown (%)

# Substance, Quantitative readout
data = [
    ("RNA1{r(A)p.r(A)p.r(A)p.r(G)p.r(C)p.r(G)p.r(G)p.m(U)p.m(G)p.r(G)p.r(A)p.r(U)p.m(C)p.r(A)p.r(G)p.r(C)p.r(U)p.r(C)p.r(U)p.r(T)p.r(T)}|RNA2{r(A)p.r(G)p.r(A)p.r(G)p.r(C)p.m(U)p.r(G)p.r(A)p.r(U)p.r(C)p.m(C)p.m(A)p.r(C)p.r(C)p.r(G)p.r(C)p.r(U)p.r(U)p.r(U)p.r(T)p.r(T)}$$$RNA1{StrandType:ss}|RNA2{StrandType:as}$", 63),
    ("RNA1{[fl2r](A)p.r(G)p.[fl2r](A)p.r(G)p.[fl2r](A)p.r(G)p.[fl2r](G)p.r(U)p.[fl2r](G)p.r(G)p.[fl2r](A)p.r(G)p.[fl2r](G)p.r(U)p.[fl2r](A)p.r(U)p.[fl2r](C)p.r(U)p.[fl2r](C)p.r(T)p.r(T)}|RNA2{r(G)p.[fl2r](A)p.r(G)p.[fl2r](A)p.r(U)p.[fl2r](A)p.r(C)p.r(C)p.r(U)p.r(C)p.r(C)p.[fl2r](A)p.r(C)p.r(C)p.r(U)p.r(C)p.r(U)p.r(C)p.r(U)p.r(T)p.r(T)}$$$RNA1{StrandType:ss}|RNA2{StrandType:as}$", 68),
]

###

Settings: siRNA
HELM strings list units from the 5' end as sugar, base in round brackets, then linkage (d deoxyribose, r ribose, m 2'-O-methyl, p phosphodiester). Strings are as the collection lists them, not checked against the first reports. ss, as = sense and antisense strand; [s4r] = 4'-thioribose; [fl2r] = 2'-fluoro
Would you mind classing the entries by target mRNA knockdown? Ranges: 1: < 50%; 2: ≥ 50% and < 80%; 3: ≥ 80%

# Substance, Class
measured = [
    ("RNA1{r(C)p.[fl2r](U)p.r(G)p.r(A)p.r(C)p.r(C)p.r(G)p.r(G)p.r(A)p.r(A)p.r(G)p.r(C)p.r(G)p.r(C)p.r(U)p.r(U)p.r(A)p.r(A)p.r(A)p.r(T)p.r(T)}|RNA2{r(U)p.r(U)p.[fl2r](U)p.r(A)p.r(A)p.r(G)p.r(C)p.r(G)p.r(C)p.r(U)p.r(U)p.r(C)p.r(C)p.r(G)p.r(G)p.r(U)p.r(C)p.r(A)p.r(G)p.r(T)p.r(T)}$$$RNA1{StrandType:ss}|RNA2{StrandType:as}$", 3),
    ("RNA1{[s4r](C)p.[s4r](G)p.[s4r](U)p.[s4r](A)p.r(C)p.r(G)p.r(C)p.r(G)p.r(G)p.r(A)p.r(A)p.r(U)p.r(A)p.r(C)p.r(U)p.r(U)p.r(C)p.r(G)p.r(A)p.r(T)p.r(T)}|RNA2{[s4r](U)p.[s4r](C)p.r(G)p.r(A)p.r(A)p.r(G)p.r(U)p.r(A)p.r(U)p.r(U)p.r(C)p.r(C)p.r(G)p.r(C)p.r(G)p.r(U)p.r(A)p.[s4r](C)p.[s4r](G)p.r(T)p.r(T)}$$$RNA1{StrandType:ss}|RNA2{StrandType:as}$", 3),
    ("RNA1{r(A)p.r(G)p.r(U)p.r(U)p.r(U)p.r(C)p.[fl2r](U)p.r(A)p.r(G)p.r(G)p.r(G)p.r(C)p.r(C)p.r(G)p.[fl2r](U)p.r(G)p.r(G)p.r(C)p.r(C)p.r(T)p.r(T)}|RNA2{r(G)p.r(G)p.r(C)p.[fl2r](C)p.r(A)p.r(C)p.r(G)p.[fl2r](G)p.r(C)p.r(C)p.r(C)p.[fl2r](U)p.r(A)p.r(G)p.r(A)p.r(A)p.r(A)p.r(C)p.r(U)p.r(T)p.r(T)}$$$RNA1{StrandType:ss}|RNA2{StrandType:as}$", 3),
    ("RNA1{r(A)p.r(G)p.r(A)p.r(A)p.r(G)p.[fl2r](U)p.r(A)p.r(C)p.[fl2r](C)p.r(A)p.r(G)p.r(G)p.r(A)p.r(G)p.r(G)p.r(C)p.r(G)p.r(U)p.r(U)p.r(T)p.r(T)}|RNA2{r(A)p.r(A)p.r(C)p.r(G)p.r(C)p.r(C)p.r(U)p.r(C)p.r(C)p.[fl2r](U)p.r(G)p.r(G)p.[fl2r](U)p.r(A)p.r(C)p.r(U)p.r(U)p.r(C)p.r(U)p.r(T)p.r(T)}$$$RNA1{StrandType:ss}|RNA2{StrandType:as}$", 2),
    ("RNA1{m(C)p.r(C)p.m(U)p.r(C)p.m(G)p.r(G)p.m(A)p.r(G)p.m(A)p.r(G)p.m(U)p.r(U)p.m(C)p.r(U)p.m(A)p.r(C)p.m(U)p.r(C)p.r(U)p.r(T)p.r(T)}|RNA2{r(A)p.r(G)p.r(A)p.r(G)p.r(U)p.r(A)p.r(G)p.r(A)p.r(A)p.r(C)p.r(U)p.r(C)p.r(U)p.r(C)p.r(C)p.r(G)p.r(A)p.r(G)p.r(G)p.r(T)p.r(T)}$$$RNA1{StrandType:ss}|RNA2{StrandType:as}$", 1),
    ("RNA1{[s4r](A)p.[s4r](A)p.r(A)p.r(C)p.r(A)p.r(U)p.r(G)p.r(C)p.r(A)p.r(G)p.r(A)p.r(A)p.r(A)p.r(A)p.r(U)p.r(G)p.r(C)p.r(U)p.r(G)p.r(T)p.r(T)}|RNA2{r(C)p.r(A)p.r(G)p.r(C)p.r(A)p.r(U)p.r(U)p.r(U)p.r(U)p.r(C)p.r(U)p.r(G)p.r(C)p.r(A)p.r(U)p.r(G)p.r(U)p.r(U)p.r(U)p.r(T)p.r(T)}$$$RNA1{StrandType:ss}|RNA2{StrandType:as}$", 2),
    ("RNA1{m(C)p.r(U)p.m(C)p.r(C)p.m(G)p.r(A)p.m(C)p.r(A)p.m(G)p.r(A)p.m(U)p.r(G)p.m(A)p.r(A)p.m(G)p.r(G)p.m(A)p.r(A)p.m(A)p.r(T)p.r(T)}|RNA2{r(U)p.r(U)p.r(U)p.r(C)p.r(C)p.r(U)p.r(U)p.r(C)p.m(A)p.r(U)p.r(C)p.r(U)p.r(G)p.r(U)p.r(C)p.r(G)p.r(G)p.m(A)p.r(G)p.r(T)p.r(T)}$$$RNA1{StrandType:ss}|RNA2{StrandType:as}$", 1),
]
